# Tgt: mouse TMEM16A mutant I640A (Mus musculus, UniProt Q8BHY3, I640A)
# Construct: expressed in transfected cells; host or cells: HEK293T
# Protocol Text: Inside-out patch recording of 1PBC block, mutant I640A
# Assay type: cell-based
# Protocol Conditions: I640A; V -20 mV
Quantity Measured: IC50 (µM)
Report only the number, with the unit µM understood.

Measured IC50 of `N#Cc1c(C(F)(F)F)cc(O)n2c1nc1ccccc12` : 36.1

====

# Tgt: mouse TMEM16A mutant G510P (Mus musculus, UniProt Q8BHY3, G510P)
# Construct: expressed in transfected cells; host or cells: HEK293T
# Protocol Text: Inside-out patch recording of 1PBC block, mutant G510P
# Type: cell-based
# Protocol Conditions: 140 mV; 15 µM Ca2+
Quantity Measured: pIC50
Quick note: pIC50 means taking -log10 of the concentration in moles per liter.

Measured pIC50 of N#Cc1c(C(F)(F)F)cc(O)n2c1nc1ccccc12 [1PBC] : 4.16

====

# Tgt: mouse TMEM16A mutant S517A (Mus musculus, UniProt Q8BHY3, S517A)
# Construct: expressed in transfected cells; host or cells: HEK293T
# Sequence (Q8BHY3 1-960 S517A): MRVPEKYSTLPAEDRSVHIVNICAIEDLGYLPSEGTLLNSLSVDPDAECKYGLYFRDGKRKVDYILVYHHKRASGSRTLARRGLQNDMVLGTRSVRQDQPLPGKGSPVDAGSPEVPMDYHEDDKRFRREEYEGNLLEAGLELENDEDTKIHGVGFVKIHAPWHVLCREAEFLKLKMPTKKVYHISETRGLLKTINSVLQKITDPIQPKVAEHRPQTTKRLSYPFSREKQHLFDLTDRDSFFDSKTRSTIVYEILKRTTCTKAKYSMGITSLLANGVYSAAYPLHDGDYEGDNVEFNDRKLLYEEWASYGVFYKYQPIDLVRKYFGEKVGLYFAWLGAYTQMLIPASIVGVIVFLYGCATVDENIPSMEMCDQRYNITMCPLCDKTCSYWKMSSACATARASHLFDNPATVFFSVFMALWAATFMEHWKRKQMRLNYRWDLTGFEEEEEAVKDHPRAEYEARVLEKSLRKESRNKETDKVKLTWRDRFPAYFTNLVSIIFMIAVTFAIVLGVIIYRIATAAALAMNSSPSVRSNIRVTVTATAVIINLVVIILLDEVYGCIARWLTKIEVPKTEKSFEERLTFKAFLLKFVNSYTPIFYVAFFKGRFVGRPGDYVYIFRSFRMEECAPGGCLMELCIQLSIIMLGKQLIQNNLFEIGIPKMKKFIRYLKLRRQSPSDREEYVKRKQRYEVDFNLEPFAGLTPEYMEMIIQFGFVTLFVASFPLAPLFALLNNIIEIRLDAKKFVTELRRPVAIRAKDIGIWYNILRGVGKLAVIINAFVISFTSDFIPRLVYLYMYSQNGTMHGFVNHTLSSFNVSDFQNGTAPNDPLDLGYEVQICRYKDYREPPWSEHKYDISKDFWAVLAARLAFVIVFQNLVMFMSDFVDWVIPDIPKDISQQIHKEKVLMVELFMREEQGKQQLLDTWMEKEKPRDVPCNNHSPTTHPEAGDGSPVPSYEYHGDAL
# Protocol Text: Inside-out patch recording of 1PBC block, mutant S517A
# Format: cell-based
# Protocol Conditions: S517A; V 60 mV
Quantity Measured: pIC50
Quick note: pIC50 means taking -log10 of the concentration in moles per liter.

Measured pIC50 of N#Cc1c(C(F)(F)F)cc(O)n2c1nc1ccccc12 [1PBC] : 5.60

Data origin: paper PMC9120017
